Hey, just so you know, these numbers are from patent US20250313627A1.

Record form. Attribute: MFI. Fill in for each entry.
Biological target: T1, human ROR1 (Receptor Tyrosine Kinase-Like Orphan Receptor 1) on the cell surface (human, UniProt Q01973 30-937)
T1 construct: whole, on cells; engineered into B16-F10 (high density) and LS174T (low density) cells; also called B16-F10-ROR1-H; LS174T-ROR1-L
T1 sequence (Q01973 30-937): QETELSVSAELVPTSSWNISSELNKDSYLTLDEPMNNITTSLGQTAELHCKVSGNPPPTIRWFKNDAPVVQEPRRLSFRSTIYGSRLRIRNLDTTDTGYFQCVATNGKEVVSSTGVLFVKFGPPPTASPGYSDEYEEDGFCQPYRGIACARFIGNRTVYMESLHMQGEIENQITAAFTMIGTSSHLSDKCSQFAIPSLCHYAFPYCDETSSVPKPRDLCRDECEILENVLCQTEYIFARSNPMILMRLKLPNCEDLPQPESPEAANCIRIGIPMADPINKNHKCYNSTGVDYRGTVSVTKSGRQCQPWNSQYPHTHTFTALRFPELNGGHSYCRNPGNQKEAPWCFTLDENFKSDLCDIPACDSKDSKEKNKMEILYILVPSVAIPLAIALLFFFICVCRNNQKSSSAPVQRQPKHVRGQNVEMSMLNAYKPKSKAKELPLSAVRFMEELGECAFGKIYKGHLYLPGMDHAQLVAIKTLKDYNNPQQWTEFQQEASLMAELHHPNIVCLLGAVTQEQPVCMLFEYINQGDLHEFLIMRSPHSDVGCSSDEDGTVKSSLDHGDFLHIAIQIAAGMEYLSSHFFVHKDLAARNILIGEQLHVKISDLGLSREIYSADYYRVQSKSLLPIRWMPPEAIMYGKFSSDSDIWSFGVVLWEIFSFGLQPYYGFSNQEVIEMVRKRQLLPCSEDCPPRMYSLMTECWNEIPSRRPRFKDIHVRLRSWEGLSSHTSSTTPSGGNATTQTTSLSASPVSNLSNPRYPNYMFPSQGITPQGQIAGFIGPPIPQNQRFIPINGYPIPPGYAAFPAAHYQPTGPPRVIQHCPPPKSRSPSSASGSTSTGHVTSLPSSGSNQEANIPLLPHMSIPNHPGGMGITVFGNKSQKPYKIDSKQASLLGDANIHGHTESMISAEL
Assay: flow cytometry, B16-F10 cells expressing human ROR1 (high density)
Keep it simple and answer with nothing but the number.

Entry FUSE-569 (h5A1-FA17 Fc) (Fc fusion, VHH-Fc format; not shown: Fc of the VHH-Fc format) QVQLVESGGGLVQPGGSLRLSCSASGYTNRLKCMGWFRQAPGKERELASISTGTGNTYYADSVKGRFTISRDNSKNTLYLQMNSLRADDTAVYYCAADVRPDGTTCHYNSWGQGTQVTVSS has what MFI? 590

Entry FUSE-570 (h5A1-FA18 Fc) (Fc fusion, VHH-Fc format; not shown: Fc of the VHH-Fc format) QVQLVESGGGLVQPGGSLRLSCSASGYTNRLKCMGWFRQAPGKEREEIATISSGTGNTYYADSVKGRFTFSRDNSKNTLYLQMNSLRAEDTGMYYCAADVRPDGTTCHYNSGGQGTQVTVSS has what MFI? 583

Entry FUSE-179 (5A1 VHH-human-Fc fusion protein) (Fc fusion, VHH-human-Fc fusion; non-humanized 5A1; not shown: human Fc) QVQLQESGGGSVQAGGSLKLSCTASGYTNRLKCMGWFRQAPGKEREEIATISTGTGNTYYADSVKGRFTFSQDKVKNTVYLQMNTLKPDDTGMYYCAADVRPDGTTCHYNSGGQGTQVTVSS has what MFI? 3730

Entry FUSE-563 (h5A1-FA11 Fc) (Fc fusion, VHH-Fc format; not shown: Fc of the VHH-Fc format) EVQLLESGGGLVQPGGSLKLSCTASGYTNRLKCMGWFRQAPGKEREEIATISTGTGNTYYADSVKGRFTISQDRSKNTLYLQMNSLRAEDTAVYYCAADVRPDGTTCHYNSWGQGTLVTVSS has what MFI? 388

Entry FUSE-559 (h5A1-FA9-HK1 Fc) (Fc fusion, VHH-Fc format; also called humanized clone 5A1-FA9-HK1; not shown: Fc of the VHH-Fc format) EVQLLESGGGLVQPGGSLRLSCTASGYTNRLKCMGWFRQAPGKEREEIASISTGTGNTYYADSVKGRFTISRDKSRNTLYLQMNTLRAEDTAVYYCAADVRPHGTTCHYNSRGQGTQVTVSS has what MFI? 6080
